// values below are reported Frequency (TNFα+ IFNγ+ CD4 T cells)
Test system: CD4+ T cells
Experiment: Exogenous autologous healthy donor restimulation assay, TNFα and IFNγ production by CD4+ T cells
Type: cell-based, human
Design: unit not given here
Details: maximum CD4+ T-cell response, donor independent; peptide pool 10 μg/mL, healthy donors
Response field accepts a number only; no unit should be typed.

Sample records with Frequency (TNFα+ IFNγ+ CD4 T cells):
RQLQQQLSSLSGPEGVPFLKLWCLDDLLSTLLGTCRCPSRAQF [FUS57, gene fusion MED12-> NLGN3]	0.24
ILAQKKKDELSS [AS93, alternative splicing, TJP1]	0.015
GKSTPPRKEIFDDASP [FUS11, gene fusion GAB1-> SMARCA5]	0.008
MDLTAIYETMQIFVKT [FUS30, gene fusion ZFP36-> UBC]	0.1
MKQFLDFGECGPGPWAFLRGPGRGAAAAAPGRVGAGQLSPEAHPSSSAFPPPAP [AS10, alternative splicing, PDK1]	0.028
LEDKELGRISVCPWTEGLEKMEKTLLCSSSG [AS88, alternative splicing, CADPS2]	0.12
FU524 (SGLEAIQRGYETFYSE)	0.014
FALMASLGIPQTMAA [FUS56, gene fusion ZNF772-> VN1R1]	0.75
FGTSHMMVRHF [AS33, alternative splicing, CFAP54]	0.009
KLLYEVSQKMVL [AS50, alternative splicing, PDZRN4]	0.041

Given the substance IMLIGNKSNCQKQLLRDMKILNEFYHGLILTLQLS [AS126, alternative splicing, RAB2B] , what is its reported Frequency (TNFα+ IFNγ+ CD4 T cells)?
0.04

These measurements were taken from patent US20210261636A1.
